System: U2OS
Test: Incucyte cell viability with U2OS; also: filed as whole numbers so only -1 and 0 and 1 occur
Assay type: toxicity, cell-based
Details: human, 6 h, 10 µM, compound concentration 10 uM, replicate number 1, timepoint 6 hours
value type: Growth Rate
Answers are plain numbers.

1) CS(=O)(=O)NC[C@H]1CC[C@H](Nc2nc3c(s2)CCSc2ccccc2-3)CC1 | 0

Each molecule below has a reported value. Please supply its Growth Rate.
1. COc1ccc(Cn2ccc3ccc(C(=O)NO)cc32)cc1
2. CCC(=O)Nc1cccc(Oc2nc(Nc3ccc(N4CCN(C)CC4)cc3OC)ncc2Cl)c1
3. C[C@@H](c1cccc(CN)c1)n1cc(Cl)cc(C(N)=O)c1=N.Cl
4. CC(=O)C1=C(C)N(c2cccc(C(F)(F)F)c2)C(=O)N[C@H]1c1ccc(C#N)nc1
5. CCn1cc(-c2cccc(C(F)(F)F)c2)c2sc(C(=N)NC3CCS(=O)(=O)CC3)cc2c1=O
6. CC[C@@H]1[C@H](F)C(=O)N[C@@H]1COc1nccc2cc(C(N)=O)c(OC)cc12
7. CCn1c(=O)c(-c2ccc(Cl)cc2Cl)cc2cnc(Nc3ccc(N4CCNCC4)c(F)c3)nc21
8. CNCc1ccccc1-c1csc([C@H](C)Nc2nc(C)nc3cc(OC)c(OC)cc23)c1

1: 0; 2: 0; 3: 1; 4: 1; 5: 1; 6: 0; 7: 0; 8: 0

State recorded Growth Rate for all listed molecules.
1. O=C(c1ccc(F)cc1)N1CC(COc2ccc(Br)cc2)(C(=O)O)C1
2. CN1C(=O)c2sccc2N(C)c2nc(Nc3ccc(S(N)(=O)=O)cc3)ncc21
3. Clc1cccc(-c2nnnn2Cc2cccnc2)c1Cl
4. Cc1cc(C)cc(-c2cnc3cc(Cl)c(-c4cccc(O)c4)cc3c2OCCCN)c1
5. O=C(O)[C@@H]1[C@@H](Cn2nnc3ccccc3c2=O)CC[C@H]1C(=O)c1ccc(OCCC2CCOCC2)cc1
6. CCN(CC)CCCCNc1ncc2cc(-c3cc(OC)cc(OC)c3)c(NC(=O)NC(C)(C)C)nc2n1
7. CC[C@H](C)C(=O)O[C@H]1C[C@@H](C)C=C2C=C[C@H](C)[C@H](CC[C@@H]3C[C@@H](O)CC(=O)O3)[C@H]21
8. Cn1cc(-c2[nH]c3cc(NC(=O)[C@H](N)C4CCCCC4)cc4c3c2C=NNC4=O)cn1

1: 1; 2: 0; 3: 1; 4: 0; 5: 0; 6: 0; 7: 0; 8: 0

Fill in: Growth Rate of CCOc1cc(N2CCC(O)CC2)ccc1Nc1ncc2c(n1)N(C)c1ccccc1C(=O)N2C is ___ 0

----------
Test system: Fibroblast
Assay: Multiplex assay against human fibroblast
Assay type: toxicity, cell-based
Details: 48 h, 10 µM, compound concentration 10 uM, replicate 2
Quick rule: Population Tubulin-Different-Phenotype (%) of at least 70% means 1, below that means 0.

1) CN1CCN(c2ccc(OC(F)(F)F)c(Nc3ncc4c(n3)-c3c(c(C(N)=O)nn3CCO)CC4)c2)CC1 [ONVANSERTIB] | 1
2) Cc1csc2c(N[C@@H](C)CN3CCN(S(=O)(=O)c4ccc(Cl)c(Cl)c4)CC3)ncnc12 | 1
3) Cn1cc(-c2[nH]c3cc(NC(=O)[C@H](N)C4CCCCC4)cc4c3c2C=NNC4=O)cn1 | 0
4) CC[C@H](C)C(=O)O[C@H]1C[C@@H](C)C=C2C=C[C@H](C)[C@H](CC[C@@H]3C[C@@H](O)CC(=O)O3)[C@H]21 [LOVASTATIN] | 0

Threshold query (Population Tubulin-Different-Phenotype (%) >= 70%) on OC1(c2ccc(Cl)cc2)CCN(Cc2c[nH]c3ccccc23)CC1 0

Queued: CC(C)NCC(O)COc1ccc(CCOCC2CC2)cc1.Cl (stereo not drawn) [BETAXOLOL HYDROCHLORIDE] 0

Same question for Cc1[nH]c(/C=C2\C(=O)Nc3ccc(S(=O)(=O)N(C)c4cccc(Cl)c4)cc32)c(C)c1C(=O)N1CCN(C)CC1 please. 1
